Origin of measurements: patent US20220195023A1

Molecular target: (NVDP)3(NANP)2 (Plasmodium falciparum)
Test: SPR, antibody on chip
MEASUREMENT LABEL: Kd (µM)

[[record]]
binder = "AB-007071 (antibody, V domains shown) VH: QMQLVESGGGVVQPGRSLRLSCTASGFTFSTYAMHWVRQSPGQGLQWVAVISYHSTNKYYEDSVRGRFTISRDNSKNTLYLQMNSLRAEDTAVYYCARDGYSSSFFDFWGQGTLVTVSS VL: DIQMTQSPSTLSASVGDRVAITCRASQSISRWLAWYQQQPGKAPKLLMSGASSLESGVPSRFSGSGSGTEFTLTISSLQPDDFATYYCQHYNSYFVTFGQGTKVEIK"
readout_unit = "µM"
observed = 4.87

[[record]]
binder = "AB-007046 (antibody, V domains shown) VH: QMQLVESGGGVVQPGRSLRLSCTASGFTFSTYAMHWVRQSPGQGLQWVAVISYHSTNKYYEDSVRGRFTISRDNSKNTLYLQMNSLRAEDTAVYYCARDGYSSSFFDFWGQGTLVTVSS VL: DIQMTQSPSTLSASVGDRVAITCRASQSISRWLAWYQQQPGKAPKLLMSGASVLESGVPSRFSGSGSGTEFTLTISSLQPDDFATYYCQHYYSYFVTFGQGTKVEIK"
readout_unit = "µM"
observed = 2.81

